This collection of values is drawn from paper PMC8252765.

# targetOrTestSystem: H725A His6-AspH315-758 (Homo sapiens, UniProt Q12797, H725A)
# Construct: containing H679A or H725A His6-AspH315-758 variant (0.2 μM); made in house; host or cells: E. coli BL21 (DE3), pET-28a(+)
# Sequence (Q12797 315-758 H725A): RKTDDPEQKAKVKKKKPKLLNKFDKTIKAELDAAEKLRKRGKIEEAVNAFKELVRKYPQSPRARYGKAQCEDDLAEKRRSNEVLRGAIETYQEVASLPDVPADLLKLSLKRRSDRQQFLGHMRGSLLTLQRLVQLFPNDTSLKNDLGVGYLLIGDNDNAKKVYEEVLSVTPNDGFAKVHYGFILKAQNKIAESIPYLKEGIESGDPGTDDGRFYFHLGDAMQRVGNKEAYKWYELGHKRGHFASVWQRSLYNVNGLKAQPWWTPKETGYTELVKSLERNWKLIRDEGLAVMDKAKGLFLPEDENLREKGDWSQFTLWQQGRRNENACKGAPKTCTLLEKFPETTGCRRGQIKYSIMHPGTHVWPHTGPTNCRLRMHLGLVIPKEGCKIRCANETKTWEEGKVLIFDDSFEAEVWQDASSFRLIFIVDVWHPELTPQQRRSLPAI
# protocolText: H725A AspH variant SPE-MS inhibition assay
# Assay type: biochemical
# conditionLabel: n=2; read-out: IC50
pIC50: −log10 of the molar value.

molecule	pIC50
[Cl-].[Cl-].[Co+2] [CoCl2]	5.52

###

# targetOrTestSystem: H679A His6-AspH315-758 (Homo sapiens, UniProt Q12797, H679A)
# Construct: containing H679A or H725A His6-AspH315-758 variant (0.2 μM); made in house; host or cells: E. coli BL21 (DE3), pET-28a(+)
# Sequence (Q12797 315-758 H679A): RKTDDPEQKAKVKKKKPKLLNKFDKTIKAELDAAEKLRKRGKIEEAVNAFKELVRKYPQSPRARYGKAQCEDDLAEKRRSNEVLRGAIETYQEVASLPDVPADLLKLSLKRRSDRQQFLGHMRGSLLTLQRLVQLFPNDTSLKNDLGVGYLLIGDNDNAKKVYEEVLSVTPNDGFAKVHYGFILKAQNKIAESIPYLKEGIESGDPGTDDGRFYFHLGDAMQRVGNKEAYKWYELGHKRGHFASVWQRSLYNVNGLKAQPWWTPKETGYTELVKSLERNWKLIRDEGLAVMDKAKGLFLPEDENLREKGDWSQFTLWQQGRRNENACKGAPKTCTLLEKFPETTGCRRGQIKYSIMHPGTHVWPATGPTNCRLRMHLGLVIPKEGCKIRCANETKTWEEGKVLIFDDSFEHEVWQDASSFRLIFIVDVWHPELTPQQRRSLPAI
# protocolText: H679A AspH variant SPE-MS inhibition assay
# Format: biochemical
# conditionLabel: 0.1 μM H679A AspH, 4.0 μM hFX-EGFD1_86-124-4Ser, 110 μM 2OG, 4 μM Fe^II; SPE-MS; n=2; read-out: IC50
pIC50: −log10 of the molar value.

molecule	pIC50
[Cl][Mn][Cl] [MnCl2]	4.64
CC(=O)[O-].CC(=O)[O-].[Zn+2] [Zn(OAc)2]	6.80

###

# targetOrTestSystem: H679A His6-AspH315-758 (Homo sapiens, UniProt Q12797, H679A)
# Construct: containing H679A or H725A His6-AspH315-758 variant (0.2 μM); made in house; host or cells: E. coli BL21 (DE3), pET-28a(+)
# Sequence (Q12797 315-758 H679A): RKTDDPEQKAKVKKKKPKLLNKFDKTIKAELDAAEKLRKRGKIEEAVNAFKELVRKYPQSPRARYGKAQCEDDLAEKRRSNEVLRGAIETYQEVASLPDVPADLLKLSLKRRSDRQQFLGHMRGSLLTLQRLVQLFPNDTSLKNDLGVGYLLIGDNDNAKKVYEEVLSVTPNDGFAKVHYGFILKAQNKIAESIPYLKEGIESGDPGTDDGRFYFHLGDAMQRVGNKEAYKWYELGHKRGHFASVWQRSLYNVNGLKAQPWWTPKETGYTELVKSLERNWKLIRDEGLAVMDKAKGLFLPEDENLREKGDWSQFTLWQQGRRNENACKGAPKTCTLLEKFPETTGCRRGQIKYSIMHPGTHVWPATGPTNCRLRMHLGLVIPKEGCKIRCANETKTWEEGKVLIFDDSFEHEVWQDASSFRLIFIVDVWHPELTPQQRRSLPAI
# protocolText: H679A AspH variant SPE-MS inhibition assay
# Format: biochemical
# conditionLabel: n=2; read-out: IC50

mol	targetOrTestSystem	IC50
[Cl-].[Cl-].[Co+2]	H679A His6-AspH315-758 (Homo sapiens, UniProt Q12797, H679A)	1500 nM

###

# targetOrTestSystem: H725A His6-AspH315-758 (Homo sapiens, UniProt Q12797, H725A)
# Construct: containing H679A or H725A His6-AspH315-758 variant (0.2 μM); made in house; host or cells: E. coli BL21 (DE3), pET-28a(+)
# protocolText: H725A AspH variant SPE-MS inhibition assay
# Type: biochemical
# conditionLabel: 0.1 μM H725A AspH, 4.0 μM hFX-EGFD1_86-124-4Ser, 215 μM 2OG, 10 μM Fe^II; SPE-MS; n=2; read-out: IC50

mol	resultUnit	relationOperator	IC50
CC(=O)[O-].CC(=O)[O-].[Zn+2]	nM	=	160
[Cl][Mn][Cl]	nM	>	40000

###

Items are presented alongside their recorded IC50.
# targetOrTestSystem: H679A His6-AspH315-758 (Homo sapiens, UniProt Q12797, H679A)
# Construct: containing H679A or H725A His6-AspH315-758 variant (0.2 μM); made in house; host or cells: E. coli BL21 (DE3), pET-28a(+)
# Sequence (Q12797 315-758 H679A): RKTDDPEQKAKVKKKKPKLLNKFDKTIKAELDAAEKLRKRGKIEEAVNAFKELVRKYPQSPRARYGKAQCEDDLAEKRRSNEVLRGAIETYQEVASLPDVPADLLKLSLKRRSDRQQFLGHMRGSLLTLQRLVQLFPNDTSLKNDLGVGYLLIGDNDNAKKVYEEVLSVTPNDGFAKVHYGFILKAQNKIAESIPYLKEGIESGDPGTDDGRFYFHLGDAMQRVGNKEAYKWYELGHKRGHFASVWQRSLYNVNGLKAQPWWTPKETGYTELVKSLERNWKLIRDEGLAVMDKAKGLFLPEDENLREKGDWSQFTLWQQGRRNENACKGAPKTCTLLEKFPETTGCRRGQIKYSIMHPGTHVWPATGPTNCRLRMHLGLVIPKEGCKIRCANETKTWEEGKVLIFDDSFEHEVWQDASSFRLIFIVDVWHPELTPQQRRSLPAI
# protocolText: H679A AspH variant SPE-MS inhibition assay
# Format: biochemical
# conditionLabel: read-out: IC50
valueType: IC50

mol	valueMeasured
O=C(O)c1ccnc(C(=O)O)c1	130 nM
O=S(=O)([O-])[O-].[Ni+2]	2700 nM
